Each entry below carries its reported melting point.

Known results for molecules:
Cc1c(C(=O)Nc2ccc(N3CCN(CCO)CC3)c(C#N)c2)cnn1-c1ccc(F)c(F)c1 : 164 to 165 °C
Cc1ccc2c3c(c(=O)oc2c1)CN(Cc1ccccc1)CC3 : 109 to 111 °C
CCc1nc2c(C)cc(C)nc2n1Cc1ccc(C(=O)c2ccccc2)cc1 : 98 °C
C[C@H](NC(=O)c1ccc[nH]1)C(=O)NC(C=O)CC(=O)O (stereo not given in full) : 96 to 100 °C

Switching to the query record.
## Input Need melting point, item Cc1cc(Oc2ccc([N+](=O)[O-])cc2)c2cc3c(cc2n1)OCO3
## Output 210 to 212 °C
